Sequence of the target: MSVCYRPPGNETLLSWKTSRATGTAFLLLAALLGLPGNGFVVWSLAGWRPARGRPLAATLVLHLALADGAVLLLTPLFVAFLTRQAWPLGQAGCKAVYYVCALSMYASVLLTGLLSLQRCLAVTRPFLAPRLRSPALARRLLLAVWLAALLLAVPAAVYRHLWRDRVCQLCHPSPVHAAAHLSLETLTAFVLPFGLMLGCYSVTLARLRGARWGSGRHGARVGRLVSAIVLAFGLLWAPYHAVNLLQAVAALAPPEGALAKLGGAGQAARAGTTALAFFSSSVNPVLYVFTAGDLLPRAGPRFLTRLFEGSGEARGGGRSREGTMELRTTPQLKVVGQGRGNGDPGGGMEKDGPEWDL
Literature Ki values, system: the protein given by its sequence.
EXPERIMENTAL_ENDPOINT: Ki (nM)

compound=CCCCCCC=CC(=O)C=CC=CCC=CCCCC(=O)O experimental_endpoint=Ki unit_name=nM value=155

I: CCCCCCCCC(O)/C=C/c1cccc(C)n1 (stereo not given)
II: O=C(O)CCCCCC=CCC(O)C=CC=CC=CC(O)CCCC(=O)O (stereo not given)
III: CCCCCC(O)C=CC=CC=CC=CC(O)C(O)CCCC(=O)O (stereo not given)
IV: CCCCC/C=C\C\C=C/C=C/C=C/[C@@H](SC[C@H](N)C(=O)NCC(=O)O)[C@@H](O)CCCC(=O)O
V: CCCCCCCCC=CC=CC=CC(SCC(N)C(=O)O)C(O)CCCC(=O)O (stereo not given)
Sort these compounds on Ki so the largest reading comes first. Give your ranking as a list of the labels in the requested order.
V, III, I, II, IV
